I'd be grateful if you could share measured Ki for these entries.
# Target desc: Human α2δ-1 subunit of Cav2.2 calcium channel (Homo sapiens)
# Sequence (P54289 25-1103): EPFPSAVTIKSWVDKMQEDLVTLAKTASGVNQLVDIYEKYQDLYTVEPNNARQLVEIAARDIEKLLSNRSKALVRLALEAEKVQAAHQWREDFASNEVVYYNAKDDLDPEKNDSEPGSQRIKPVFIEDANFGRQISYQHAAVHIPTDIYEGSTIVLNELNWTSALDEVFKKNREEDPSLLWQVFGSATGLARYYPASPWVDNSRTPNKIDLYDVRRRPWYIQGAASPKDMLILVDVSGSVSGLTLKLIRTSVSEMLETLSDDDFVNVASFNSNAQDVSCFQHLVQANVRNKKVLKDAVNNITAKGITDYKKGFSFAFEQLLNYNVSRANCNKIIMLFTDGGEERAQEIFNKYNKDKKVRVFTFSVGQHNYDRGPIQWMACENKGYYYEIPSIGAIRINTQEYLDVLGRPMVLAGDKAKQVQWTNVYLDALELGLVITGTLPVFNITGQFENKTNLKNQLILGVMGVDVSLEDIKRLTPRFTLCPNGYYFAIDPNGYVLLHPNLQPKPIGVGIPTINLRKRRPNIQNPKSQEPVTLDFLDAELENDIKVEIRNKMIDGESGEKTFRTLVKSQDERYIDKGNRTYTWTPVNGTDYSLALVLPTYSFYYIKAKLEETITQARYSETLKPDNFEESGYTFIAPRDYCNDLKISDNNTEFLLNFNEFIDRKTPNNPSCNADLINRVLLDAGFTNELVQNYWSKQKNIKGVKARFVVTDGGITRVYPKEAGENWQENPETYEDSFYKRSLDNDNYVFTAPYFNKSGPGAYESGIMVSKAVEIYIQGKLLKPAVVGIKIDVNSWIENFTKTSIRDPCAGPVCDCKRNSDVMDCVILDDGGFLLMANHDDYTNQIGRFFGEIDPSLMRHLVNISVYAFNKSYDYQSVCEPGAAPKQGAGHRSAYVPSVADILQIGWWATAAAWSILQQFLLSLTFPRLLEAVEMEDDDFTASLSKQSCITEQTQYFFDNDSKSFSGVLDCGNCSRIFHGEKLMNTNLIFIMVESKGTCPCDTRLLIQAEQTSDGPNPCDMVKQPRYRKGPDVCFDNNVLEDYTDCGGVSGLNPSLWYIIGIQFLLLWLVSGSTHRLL
# Assay comment: Human α2δ-1 subunit of Cav2.2 calcium channel assay ([3H]-gabapentin binding)
# Setup conditions: binding to the α2δ-1 subunit of voltage-gated calcium channels expressed as Ki; + also covers inhibition between 1% and 50%

Exercise: Please give the measured Ki for this molecule: `CN[C@@H]1CCN(c2cc3nccc([C@H]4CCCN(Cc5ccccc5)C4)n3n2)C1`
Solution: 500 to 5000 nM

Exercise: Which Ki value belongs to Cc1nn2c(CC3CCCN(Cc4cccc(Cl)c4)C3)ccnc2c1CN(C)C (stereo not drawn) ?
Solution: > 5000 nM

Exercise: Quick check: Ki of `CC(=O)N1CCC(CNCc2c(C)nn3c([C@H]4CCCN(Cc5ccc(Cl)cc5)C4)ccnc23)CC1` ?
Solution: < 500 nM

Exercise: Please give the measured Ki for this molecule: COCCCCNCc1c(C)nn2c(C3CCCN(Cc4ccc(Cl)cc4)C3)ccnc12 (stereo not drawn)
Solution: < 500 nM

Exercise: Requested read-out: Ki. Entry: COCC1CCN(Cc2c(C)nn3c(C4CCCN(Cc5ccc(Cl)cc5)C4)ccnc23)CC1 (stereo not drawn)
Solution: < 500 nM

Exercise: Which Ki is listed for CCc1cc(-c2c(C)nn3c(C4CCCN(Cc5ccccc5)C4)ccnc23)ccn1 (stereo not drawn) ?
Solution: 500 to 5000 nM
